The origin of these recorded values is PubChem BioAssay.

Protocol notes: reduced SW480 viability measured with CellTiter-Glo, NPC library, primary (AID 1117343)
Study conditions: CellTiter-Glo luminescence; at 20 µM (top of the series)
Reported property: viability decrease (inhibition) (%)
Hi! Could you send only the number? It should be in %, unit omitted.

Problem: What value of measured viability decrease (inhibition) is listed for "CN1CCN(CCCN2c3ccccc3Sc3ccc(Cl)cc32)CC1" ?
Result: 137

Problem: Could you do the same for "Oc1cccc(O)c1" , please?
Result: 78.9

Problem: Further, for "CC(=O)O[C@H]1C[C@@H]2CC[C@@H]3[C@H](CC[C@@]4(C)[C@H]3C[C@H]([N+]3(C)CCCCC3)[C@@H]4OC(C)=O)[C@@]2(C)C[C@@H]1N1CCCCC1" ?
Result: -6.9

Problem: Another compound: "COc1ccc(CN(CCN(C)C)c2ncccn2)cc1"
Result: 4.3

Problem: Please give the result for "CCCCCCCCCCCCCCCCOP(=O)([O-])OCC[N+](C)(C)C" too.
Result: 120

Problem: Again, but for "Cn1nnc2c(C(N)=O)ncn2c1=O"
Result: -3.8

Problem: What do you have for "COc1cc(OC)cc(OC)c1" ?
Result: -10.2

Problem: Would you mind doing "CC(C)c1ccc2oc3nc(N)c(C(=O)O)cc3c(=O)c2c1" as well?
Result: 17.9

Problem: What about "C[C@]12C=CC(=O)C=C1CC[C@H]1[C@@H]3C[C@@H](O)[C@](O)(C(=O)CO)[C@@]3(C)C[C@H](O)[C@@]12F" ?
Result: 13.3

Problem: Proceed to "Nc1ncnc2nc[nH]c12"
Result: -59.6

Problem: Would you kindly repeat that for "CC(=O)OC/C=C(C)/C=C/C=C(C)/C=C/C1=C(C)CCCC1(C)C" ?
Result: -5.5

---

Protocol notes: drug combination growth inhibition, ovarian cancer – cell-based, oncology-focused library, rucaparib conditional, profiling panel (AID 1508598)
Study conditions: patient-derived ovarian cancer cells, CellTiter-Glo viability, 144 h; at 0.0781 µM; OCI-C5x cells; without rucaparib; stronger effect = lower value
Reported property: viability (%)
Please state the figure in %; there is no need to write the unit.

Problem: I'd like to know its viability. The compound in question is CC(c1cc2ccccc2s1)N(O)C(N)=O (centres undefined)
Result: 125

Problem: Note, next up: "CC[C@@]1(O)C(=O)OCc2c1cc1n(c2=O)Cc2cc3c(CN(C)C)c(O)ccc3nc2-1"
Result: 22.5

Problem: Also check "Cc1nc(-c2ccc(OCC(C)C)c(C#N)c2)sc1C(=O)O"
Result: 112

Problem: Would you kindly repeat that for "COc1cc2c(Nc3ccc(Br)cc3F)ncnc2cc1OCC1CCN(C)CC1" ?
Result: 118

Problem: # iterate: "CCc1c2c(nc3ccc(OC(=O)N4CCC(N5CCCCC5)CC4)cc13)-c1cc3c(c(=O)n1C2)COC(=O)[C@]3(O)CC"
Result: 109

Problem: Ok, now "O=NN(CCCl)C(=O)NC1CCCCC1"
Result: 121

Problem: Try "Cc1nc2ccc(CN(C)c3ccc(C(=O)N[C@@H](CCC(=O)O)C(=O)O)s3)cc2c(=O)[nH]1" next.
Result: 17.6

Problem: Then this compound: "NC(=O)NO"
Result: 106

Problem: Now give it for "CN(Cc1cnc2nc(N)nc(N)c2n1)c1ccc(C(=O)N[C@@H](CCC(=O)O)C(=O)O)cc1" too.
Result: 35.7

Problem: What about COc1ccccc1OCC(O)CN1CCN(CC(=O)Nc2c(C)cccc2C)CC1 (centres undefined) ?
Result: 114

Problem: Would you kindly repeat that for "COC(=O)Nc1nc2ccc(C(=O)c3cccs3)cc2[nH]1" ?
Result: 69.2

Problem: One more compound: "CC(C)(C#N)c1cc(Cn2cncn2)cc(C(C)(C)C#N)c1"
Result: 109

Problem: Next compound: "Cn1nnc2c(C(N)=O)ncn2c1=O"
Result: 101

Problem: Next compound: CCC(C)n1ncn(-c2ccc(N3CCN(c4ccc(OC[C@H]5CO[C@](Cn6cncn6)(c6ccc(Cl)cc6Cl)O5)cc4)CC3)cc2)c1=O (some centres undefined)
Result: 119

---

Exercise: state measured inhibition for each of the molecules provided.
Protocol notes: UWB1.289_BRCA1 ovarian cancer growth, cell-based, BGB or cisplatin combinations (AID 1671459)
Study conditions: UWB1.289 BRCA1 ovarian carcinoma, drug combinations, at 0.5 µM, stronger effect = higher value
Supply the numeric figure in %, leaving out any unit text.

Problem: What does the data say about its inhibition? Entry: "Cc1ccnc2c1NC(=O)c1cccnc1N2C1CC1"
Result: -12.9

Problem: Would you kindly repeat that for "C[C@H]1COc2c(C3(N)CC3)c(F)cc3c(=O)c(C(=O)O)cn1c23" ?
Result: -1.55

Problem: Try the molecule CC(N)C12CC3CC(CC(C3)C1)C2 (stereo unspecified)
Result: -16.9

Problem: Now the molecule "O=NN(CCCl)C(=O)NCCCl"
Result: -1.58

Problem: Next up: "O=C(O)CCCCCCCC(=O)O"
Result: -19.3

Problem: Same question, "CCn1cc(C(=O)O)c(=O)c2cc3c(cc21)OCO3" this time
Result: 1.91

Problem: Then this molecule: "O=c1oc2c(O)c(O)cc3c(=O)oc4c(O)c(O)cc1c4c23"
Result: -1.72

Problem: How about this molecule: "Cc1oncc1C(=O)Nc1ccc(C(F)(F)F)cc1"
Result: 6.99

Problem: Query "CN(C)c1ccc(C(=C2C=CC(=[N+](C)C)C=C2)c2ccc(N(C)C)cc2)cc1" next
Result: 71.7

Problem: // repeat for "Nc1nc2c(ncn2COC(CO)CO)c(=O)[nH]1" and report
Result: 7.28

Problem: Also, "NC(=O)NO" please.
Result: 4.57

---

Protocol notes: EMT-state selective cytotoxicity in co-culture – imaging, PC-3E GFP, TEM4-18 mCherry, primary screen (AID 1345086);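 also: cells exposed to compound for 72 h before imaging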
Study conditions: PC-3E GFP / TEM4-18 mCherry co-culture, imaging cell counts; measured here: epithelial PC-3E GFP cell survival; at 1 µM
Sorting guide: entries reporting normalised cell number beneath 1 go in the true (1) pile, the rest go in the false (0) pile.

Problem: Could you please tell me whether normalised cell number recorded for COc1ccccc1N1CCN(CC(O)COc2cccc3ccccc23)CC1 (configuration not stated) is less than 1?
Result: false (0)

Problem: And what about the molecule "CCCCOc1ccc(CC(=O)NO)cc1" ?
Result: true (1)

Problem: Next molecule up: O=C(O)CCCCC1CCSS1 (configuration not stated)
Result: true (1)

Problem: What about this molecule? "CN1C(C)(C)CCCC1(C)C"
Result: false (0)

Problem: Now the molecule "NC(N)=NS(=O)(=O)c1ccc(N)cc1"
Result: true (1)

Problem: Further, for CCC(Cc1c(I)cc(I)c(N)c1I)C(=O)O (configuration not stated) ?
Result: false (0)

Problem: Try the molecule "NCCCC(=O)O"
Result: false (0)

Problem: Subsequent entry: CC[N+](C)(CC)CCOC(=O)C(O)(c1ccccc1)C1CCCCC1 (configuration not stated)
Result: false (0)

Problem: Okay, and "O=C1NCC2(CCN(CCc3ccccc3)CC2)O1" ?
Result: false (0)

Problem: Likewise for "C=C1c2cccc(O)c2C(O)=C2C(=O)[C@]3(O)C(O)=C(C(N)=O)C(=O)[C@@H](N(C)C)[C@@H]3[C@@H](O)[C@H]12" ?
Result: true (1)

---

Protocol notes: EMT-state selective cytotoxicity in co-culture – imaging, PC-3E GFP, TEM4-18 mCherry, primary screen (AID 1345086);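 also: cells exposed to compound for 72 h before imaging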
Study conditions: PC-3E GFP / TEM4-18 mCherry co-culture, imaging cell counts; measured here: epithelial PC-3E GFP cell survival; at 1 µM
Record form. Attribute: normalised cell number. Fill in for each entry.

Problem: Which normalised cell number value belongs to CCC1=C(C)CN(C(=O)NCCc2ccc(S(=O)(=O)NC(=O)NC3CCC(C)CC3)cc2)C1=O (stereo unspecified) ?
Result: 1.22

Problem: Now try "CCOC(=O)C1=C[C@]2(CC)CCCN3CCc4c(n1c1ccccc41)[C@@H]32" .
Result: 1.28

Problem: Moving on to the next compound: "COc1ncnc(NS(=O)(=O)c2ccc(N)cc2)c1OC"
Result: 0.5

Problem: Item: "CCCCOC(=O)c1ccc(N)cc1"
Result: 0.97

Problem: Also "CNC[C@H](O)[C@@H](O)[C@H](O)[C@H](O)CO" ?
Result: 1.19

Problem: Also check "CC[C@@]1(O)C(=O)OCc2c1cc1n(c2=O)Cc2cc3c(CN(C)C)c(O)ccc3nc2-1"
Result: 0.19

Problem: Then "CN(C)CCCN1c2ccccc2Sc2ccccc21" ?
Result: 1.03

Problem: Same question, COc1ccnc(CS(=O)c2nc3ccc(OC(F)F)cc3[nH]2)c1OC (stereo unspecified) this time
Result: 1.3

Problem: Now try "CNNCc1ccc(C(=O)NC(C)C)cc1" .
Result: 0.95

Problem: Another: "N#Cc1ccc(C(c2ccc(C#N)cc2)n2cncn2)cc1"
Result: 1.21

Problem: And what about the compound "Nc1ncnc2c1ncn2[C@@H]1O[C@H](CO)[C@@H](O)[C@H]1O" ?
Result: 0.81
